Every entry's value here was drawn from paper PMC5540273.

# Tested on: ERN1
# condition-notes: concentration: 1 μM, replicates: in singlicate; n = 1;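 also: KINOMEscan kinase panel screen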
endpoint-label: %Inh (%)
Numeric answer only, unit % assumed.

# annotated cases, reported %Inh shown
NCC(NC(=O)c1cc(-c2cn[nH]c2)c(-c2ccnc3[nH]ccc23)s1)c1ccccc1.O=C(O)C(F)(F)F.O=C(O)C(F)(F)F (stereo not shown) ... 29
Cc1c(Cn2c(C)nn3c(=O)cc(N4CCOC(C)C4)nc23)cccc1C(F)(F)F (stereo not shown) ... 24
COc1ccc(CNC(=O)NC2CCN(c3ccnc(Nc4ccc(OC)cc4)n3)C2)cc1 (stereo not shown) ... 0

Now for the compound whose %Inh we want.
Sample NS(=O)(=O)c1cccc(-c2ccc3ncc(N4CCOCC4)nc3c2)c1 , system: ERN1. Its %Inh is 2

###

A collection of molecules and their measured %Inh
# Test system: EPHB4
# condition-notes: concentration: 1 μM, replicates: in singlicate; n = 1
Numeric answer only, unit % assumed.

# annotated cases, reported %Inh shown
COc1ccc(S(=O)(=O)NC2CCN(c3cc(C)nc(Nc4cccc(C#N)c4)n3)CC2)cc1.O=C(O)C(F)(F)F [GSK1653539] ... 16
CSc1ccc(-c2cc3ncnc(SCC(=O)O)c3s2)cc1 ... 18
Cc1c2ccc(N(C)c3ccnc(Nc4cccc(S(N)(=O)=O)c4)n3)cc2nn1Cc1ccccc1.Cl.Cl [GW787226] ... 0
CN1c2ccc(NCc3ccc(F)cc3)cc2-c2c(cnn2C)S1(=O)=O ... 0

Given item c1ccc(-c2cc(-c3c[nH]nc3-c3ccccn3)ccn2)cc1 [GW576604] , the value recorded as its %Inh is 7

###

# Test system: FLT4
# condition-notes: concentration: 1 μM, replicates: in singlicate; n = 1
A collection of molecules and their measured %Inh
Numeric answer only, unit % assumed.

Sample NS(=O)(=O)CCc1cccc(Nc2nccc(-c3c(-c4cccc(NC(=O)c5c(F)cccc5F)c4)nn4ccccc34)n2)c1 , system: FLT4. Its %Inh is 99.2

Sample O=C(NCCCN1CCOCC1)c1cccc(Nc2nccc(Nc3ccc(Oc4ccccc4)cc3)n2)c1 , system: FLT4. Its %Inh is 4

Sample CC(=O)Nc1ccc(COc2ccc(Nc3ccnc4cc(-c5ccccn5)ccc34)cc2)cc1.Cl , system: FLT4. Its %Inh is 99.9

Sample N#Cc1c(N2CCOCC2)sc(-c2ccn[nH]2)c1-c1ccc(Cl)cc1 , system: FLT4. Its %Inh is 0

Sample Nc1nc(-c2ccc3c(N)n[nH]c3c2)cc(N2CCCC2)n1 , system: FLT4. Its %Inh is 0

Sample NS(=O)(=O)c1cccc(-c2ccc3ncc(N4CCOCC4)nc3c2)c1 , system: FLT4. Its %Inh is 12

Sample Cc1cccc(-c2nc(-c3ccc(S(C)(=O)=O)cc3)sc2-c2ccncc2)c1 , system: FLT4. Its %Inh is 8

Sample COc1ccc(CNC(=O)NC2CCN(c3ccnc(Nc4ccc(OC)cc4)n3)C2)cc1 (centres unmarked) , system: FLT4. Its %Inh is 0

###

A collection of compounds and their measured %Inh
# Tested on: TYRO3
# condition-notes: concentration: 1 μM, replicates: in singlicate; n = 1
Numeric answer only, unit % assumed.

CN1c2ccc(CNc3ccc(F)cc3)cc2-c2c(cnn2C)S1(=O)=O ... 0
NS(=O)(=O)c1cccc(-c2ccc3nccc(-c4cccc(S(N)(=O)=O)c4)c3c2)c1 ... 0
Cc1cn2c(=O)cc(N3CCOCC3)nc2n1Cc1cccc(Cl)c1Cl ... 7

Given item Cc1cccc(-c2nc(Nc3ccc4ncsc4c3)c3ccccc3n2)n1 , the value recorded as its %Inh is 0

Given item COc1ccc(Nc2ncc(C#N)c(Nc3ccccc3C(N)=O)n2)cc1N1CCN(C)CC1.Cl , the value recorded as its %Inh is 35

Given item O=C(NCCNc1ccnc(Nc2ccc(F)cc2)n1)c1cc2ccccc2s1 , the value recorded as its %Inh is 0

Given item C[C@@H](Oc1cc(-n2cnc3ccc(NC(=O)NC(C)(C)C)cc32)sc1C(N)=O)c1ccccc1Cl , the value recorded as its %Inh is 0

Given item O=C(NOCC1CC1)c1ccc(F)c(F)c1Nc1ccc(I)cc1Cl , the value recorded as its %Inh is 0

Given item CSc1ccc(-c2cc3ncnc(SCC(=O)O)c3s2)cc1 , the value recorded as its %Inh is 0

###

# System: MEK4
# Construct: gene MAP2K4
# condition-notes: concentration: 1 μM, replicates: in singlicate; n = 1
A collection of compounds and their measured %Inh
Numeric answer only, unit % assumed.

Given item CN(C1=C(c2ccccc2)C(=O)NC1=O)c1ccccc1 , the value recorded as its %Inh is 14

Given item Cc1cn2c(=O)cc(N3CCOCC3)nc2n1Cc1cccc(Cl)c1Cl , the value recorded as its %Inh is 17

Given item COc1cc2c(cc1OC[C@@H](O)CO)ncc1c3ccc(C#N)cc3[nH]c21 , the value recorded as its %Inh is 0

###

# Test system: FER
# condition-notes: concentration: 1 μM, replicates: in singlicate; n = 1
endpoint-label: %Inh (%)
Numeric answer only, unit % assumed.

c1ccc(-c2cc(-c3c[nH]nc3-c3ccccn3)ccn2)cc1 ... 13

Given item Cc1c2ccc(N(C)c3ccnc(Nc4cccc(S(N)(=O)=O)c4)n3)cc2nn1Cc1ccccc1.Cl.Cl , the value recorded as its %Inh is 63

Given item COc1cc(Nc2nccc(N3CCC(NC(=O)c4cccc(NC(C)=O)c4)C3)n2)cc(OC)c1OC (stereo not drawn) , the value recorded as its %Inh is 6

Given item O=C(Nc1cccc(-c2nn3ncccc3c2-c2ccnc(Nc3cccc(C(F)(F)F)c3)n2)c1)c1c(F)cccc1F , the value recorded as its %Inh is 24

Given item COc1cc2c(cc1OC[C@@H](O)CO)ncc1c3ccc(C#N)cc3[nH]c21 , the value recorded as its %Inh is 0

Given item Cc1ccc(C(=O)NCC(N)=O)cc1-n1c(C)cc(OCc2ccc(F)cc2F)c(Br)c1=O , the value recorded as its %Inh is 6

Given item O=C(Nc1n[nH]c2cc(-c3cccc(F)c3)ccc12)C1CC1 , the value recorded as its %Inh is 1

Given item NS(=O)(=O)c1cccc(-c2ccc3ncc(N4CCOCC4)nc3c2)c1 , the value recorded as its %Inh is 3

###

# Tested on: CDKL3
# condition-notes: concentration: 1 μM, replicates: in singlicate; n = 1
endpoint-label: %Inh (%)
Numeric answer only, unit % assumed.

O=C(NCCNc1ccnc(Nc2ccc(F)cc2)n1)Nc1ccccc1F ... 0
Cc1c(Cn2c(C)nn3c(=O)cc(N4CCOC(C)C4)nc23)cccc1C(F)(F)F (stereo not drawn) ... 0
CNc1ncnc2[nH]ncc12 ... 19
O=C(c1ccc(-c2cc(-c3c[nH]nc3-c3ccccn3)ccn2)cc1)N1CCOCC1 ... 0
COc1cc2ncn(-c3cc(OCc4sccc4Cl)c(C(N)=O)s3)c2cc1OC ... 0

Given item C[C@@H](Oc1cc(-n2cnc3ccc(NC(=O)NC(C)(C)C)cc32)sc1C(N)=O)c1ccccc1Cl , the value recorded as its %Inh is 0

Given item CCCCCc1nc2c(N)ncnc2n1CCCCC , the value recorded as its %Inh is 16

Given item NCC(NC(=O)c1cc(-c2cn[nH]c2)c(-c2ccnc3[nH]ccc23)s1)c1ccccc1.O=C(O)C(F)(F)F.O=C(O)C(F)(F)F (stereo not drawn) , the value recorded as its %Inh is 68

Given item Cn1ccc2ncnc(Oc3ccc(NC(=O)Nc4ccncc4)c(Cl)c3)c21 , the value recorded as its %Inh is 0

###

# System: PRKCE
# condition-notes: concentration: 1 μM, replicates: in singlicate; n = 1
So basically, if %Inh comes in under 3% it's TRUE, and if it's 3% or more it's FALSE.

Here's what some known entries look like.
COCCNC(=O)c1ccc(-c2cc(C(=O)NC3CC3)cc(F)c2C)cc1 ... FALSE
O=C(NCCNc1ccnc(Nc2ccc(F)cc2)n1)Nc1ccccc1F ... TRUE
CN1c2ccc(NCc3ccc(F)cc3)cc2-c2c(cnn2C)S1(=O)=O ... FALSE
N#Cc1c(N2CCOCC2)sc(-c2ccn[nH]2)c1-c1ccc(Cl)cc1 ... TRUE
c1ccc(-c2cc(-c3c[nH]nc3-c3ccccn3)ccn2)cc1 ... TRUE
CSc1ccc(-c2cc3ncnc(SCC(=O)O)c3s2)cc1 ... FALSE

# strict comparison: is reported %Inh < 3%? input = CNc1ncnc2[nH]ncc12
FALSE

# strict comparison: is reported %Inh < 3%? input = COc1cc2ncn(-c3cc(OCc4sccc4Cl)c(C(N)=O)s3)c2cc1OC
TRUE

# strict comparison: is reported %Inh < 3%? input = O=C1NC(=O)C(N2CCc3ccccc32)=C1c1cccc(Cl)c1
FALSE
